target: hα2A receptor (Homo sapiens); construct: expressed in transfected cells; host or cells: CHO cells; assay: Radioligand binding experiment for α2A-adrenergic receptor ([3H]-raulwolscine); conditions: CHO cell membranes with human α2A receptor, [3H]raulwolscine 1 nM; read-out: pIC50 α2A (converted)
Sequence (P08913 whole entry): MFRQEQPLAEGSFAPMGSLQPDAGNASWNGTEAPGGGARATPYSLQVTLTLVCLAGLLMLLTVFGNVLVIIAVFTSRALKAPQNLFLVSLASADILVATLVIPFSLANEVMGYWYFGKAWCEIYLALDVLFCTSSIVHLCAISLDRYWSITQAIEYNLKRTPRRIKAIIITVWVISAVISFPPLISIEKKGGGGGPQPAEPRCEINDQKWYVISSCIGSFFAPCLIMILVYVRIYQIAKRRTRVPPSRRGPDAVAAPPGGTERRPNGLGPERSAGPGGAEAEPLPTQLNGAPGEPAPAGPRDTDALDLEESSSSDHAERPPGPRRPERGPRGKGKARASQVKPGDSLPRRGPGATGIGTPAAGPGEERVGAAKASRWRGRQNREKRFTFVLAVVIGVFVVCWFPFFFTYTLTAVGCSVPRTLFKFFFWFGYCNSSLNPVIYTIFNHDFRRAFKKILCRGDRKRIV
metric: IC50 (nM)

Recorded IC50, per entry:
| molecule | IC50, nM |
| --- | --- |
| CC(=Cc1ccccc1)CN1CCN(CC2ON=C3c4ccc(Nc5ccccc5)cc4OCC32)CC1 (stereo not shown) [Compound 40] | 15.8 |
| CC(=Cc1ccc(F)cc1)CN1CCN(CC2ON=C3c4ccc(NC(=O)C5CC5)cc4OCC32)CC1 (stereo not shown) [Compound 138] | 31.6 |
| CC(=Cc1ccc(F)cc1)CN1CCN(CC2ON=C3c4ccc(NCCO)cc4OCC32)CC1 (stereo not shown) [Compound 37] | 3.16 |

[1] C/C(=C\CN1CCN(CC2ON=C3c4cc5c(cc4OCC32)NCCO5)CC1)c1ccccc1 (stereo not shown) [Compound 91]
[2] CC(=Cc1ccc(F)cc1)CN1CCN(CC2ON=C3c4ccc(NC(C)CO)cc4OCC32)CC1 (stereo not shown) [Compound 134]
[3] CC(=Cc1ccccc1)CN1CCN(CC2ON=C3c4ccc(NC(=O)c5cccnc5)cc4OCC32)CC1 (stereo not shown) [Compound 67]
[4] COc1cc2c(cc1Nc1ccncc1)OCC1C2=NOC1CN1CCN(CC(C)=Cc2ccc(F)cc2)CC1 (stereo not shown) [Compound 100]
[5] CCC(C)CNc1cc2c(cc1OC)C1=NOC(CN3CCN(CC(C)=Cc4ccc(F)cc4)CC3)C1CO2 (stereo not shown) [Compound 104]
Output the entries ranked by IC50 from maximum down to minimum. # format: label list in the order the request specifies
5, 2, 4, 1, 3
(5: 126 nM, 2: 63.1 nM, 4: 10 nM, 1: 6.31 nM, 3: 2 nM)

[I] CNCCN(C)c1ccc2c(c1)OCC1C2=NOC1CN1CCN(CC(C)=Cc2ccc(F)cc2)CC1 (stereo not shown) [Compound 21]
[II] CC(=Cc1ccc(F)cc1)CN1CCN(CC2ON=C3c4ccc(N(C)CCOC(=O)C5CCC5)cc4OCC32)CC1 (stereo not shown) [Compound 108]
Looking at recorded values for IC50, does I or II come in lower? Write down the label of the entry you select.
I
(I: 7.94 nM, II: 200 nM)

[a] CCNC(=O)Nc1ccc2c(c1)OCC1C2=NOC1CN1CCN(CC(C)=Cc2ccccc2)CC1 (stereo not shown) [Compound 59]
[b] COc1cc2c(cc1NCC1(C)CC1)OCC1C2=NOC1CN1CCN(CC(C)=Cc2ccc(F)cc2)CC1 (stereo not shown) [Compound 128]
Between the entries labeled a and b , whose measured IC50 is lower? Choose, then provide that item's label.
a

====

target: hα2A receptor (Homo sapiens); construct: expressed in transfected cells; host or cells: CHO cells; experiment: Radioligand binding experiment for α2A-adrenergic receptor ([3H]-raulwolscine); details: CHO cell membranes with human α2A receptor, [3H]raulwolscine 1 nM; read-out: pIC50 α2A (converted)
metric: IC50 (µM)

Observe how each entry below is paired with its result.
| compound | systemName | IC50 / µM |
| --- | --- | --- |
| COc1cc2c(cc1NCCN1CCCC1)OCC1C2=NOC1CN1CCN(CC(C)=Cc2ccc(F)cc2)CC1 (stereo not shown) | hα2A receptor (Homo sapiens) | 0.0158 |
| CC(=Cc1ccc(F)cc1)CN1CCN(CC2ON=C3c4ccc(N5CCN(CC=Cc6ccccc6)CC5)cc4OCC32)CC1 (stereo not shown) | hα2A receptor (Homo sapiens) | 0.126 |
| CC(=Cc1ccccc1)CN1CCN(CC2ON=C3c4ccc(N(C)CCO)cc4OCC32)CC1 (single isomer, unassigned) [Compound 33] | hα2A receptor (Homo sapiens) | 0.631 |

[P] COc1cc2c(cc1N1CCCC1C)OCC1C2=NOC1CN1CCN(CC(C)=Cc2ccc(F)cc2)CC1 (stereo not shown)
[Q] CC(=Cc1ccc(F)cc1)CN1CCN(CC2ON=C3c4ccc(NCCN5CCCC5)cc4OCC32)CC1 (stereo not shown)
[R] CC(=Cc1ccc(F)cc1)CN1CCN(CC2ON=C3c4ccc(N(C)CCOC(=O)C5CC5)cc4OCC32)CC1 (stereo not shown)
// sort entries: IC50, high to low Answer by listing the labels in the requested order.
R, Q, P
(R: 0.158 µM, Q: 0.0631 µM, P: 0.0398 µM)
